Origin of values: paper PMC6451107

Target: MLE dsRBD1+2 K171E/N175A (Drosophila, UniProt P24785 1-264, K171E;N175A)
Sequence (P24785 1-264 K171E/N175A): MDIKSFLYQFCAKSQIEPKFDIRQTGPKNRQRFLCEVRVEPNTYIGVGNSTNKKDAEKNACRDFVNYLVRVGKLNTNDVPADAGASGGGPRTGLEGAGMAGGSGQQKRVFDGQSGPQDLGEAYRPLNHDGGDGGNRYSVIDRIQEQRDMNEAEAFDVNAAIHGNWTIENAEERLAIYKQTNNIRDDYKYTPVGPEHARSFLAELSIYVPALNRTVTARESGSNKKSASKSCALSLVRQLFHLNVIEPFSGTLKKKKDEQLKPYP
Test: fluorescence polarization; FP: 80 nM 3'-FAM RNA stock mixed 1:1 with protein, buffer D (composition not in material), 15 min, 20 C; EMSA: 1200 nM RNA stock mixed 1:1 with protein, buffer
Conditions: protein: recombinant; tags: SUMO tag removed by ULP1; label: 3'-FAM; hairpin, 13 nt loop (C135-C147)
measurement_kind: Kd (µM)
Form entry: value (µM) — number only.

[Q] I am curious: what Kd value has been reported for R2H1 55mer (FAM) (structured_RNA) RNA: GCUUUAGAGAUCGUUUCGAAUCACAUUGAUAAUCGUUCGAAACGUUCUCCGAAGC ?
[A] 10.3
